Where do these numbers come from? They come from the supplement of paper PMC9233669.

system: biotinyl-Phe-oxazolone; assay: self-aminoacylation, catalytic enhancement (BFO) (fold over background); higher = more active; k-Seq, kA / k0A0; sequences stand for … in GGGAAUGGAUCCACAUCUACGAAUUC…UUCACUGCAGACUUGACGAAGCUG
This sample holds only a part of the variants without activity.
Reported Metric: self-aminoacylation

                             record_sequence  quantitative_result
 0  AUCCACCUAGGUCAUCCGGUG [Fam2.2 aminoacylation ribozyme variant]                 46.1
 1  AUUAACCUAGGUCACCGGGUG [Fam2.2 aminoacylation ribozyme variant]                 23.6
 2  AUUUCCCUGGUCAUCGAGUAA [Fam2.1 aminoacylation ribozyme variant]                  3.9
 3  AAUCACCUAGGUCAUCGGCUG [Fam2.2 aminoacylation ribozyme variant]                 10.9
 4  CCACAAUUCAAGUAAUCGGUC [Fam1B.1 aminoacylation ribozyme variant]                 2.55
 5  AAGUUUGCUCAUAGUCUCAAG [Fam3.1 aminoacylation ribozyme variant]                 1.98
 6  CCAUACUUCAAGCAAGCGGUC [Fam1B.1 aminoacylation ribozyme variant]                0.737
 7  CUACUUCAAGCAACCGGUCUG [Fam1A.1 aminoacylation ribozyme variant]                 1.06
 8  AAGUUUGCAAAAAGUCGCAAG [Fam3.1 aminoacylation ribozyme variant]                 1.72
 9  UUACUUCAAACAAUCAGUCUG [Fam1A.1 aminoacylation ribozyme variant]                 20.1
10  AUUACCCUGGUCAUCGCUUGA [Fam2.1 aminoacylation ribozyme variant]                 10.7
11  CCACACCUCAAGCCAUCGGUC [Fam1B.1 aminoacylation ribozyme variant]                 2.01
12  AUUACCGUAGUCAUCGAGUGA [Fam2.1 aminoacylation ribozyme variant]                   26
13  AUUACCCCGGUCAUCUAGUGA [Fam2.1 aminoacylation ribozyme variant]                 47.1
14  AAGUUUGCUAAUAGUCCCGAG [Fam3.1 aminoacylation ribozyme variant]                 1.54
15  AUUACCCUGGGCAUCCAGUGA [Fam2.1 aminoacylation ribozyme variant]                 50.6
16  CCAGACUUCAAGCAAUCGGCC [Fam1B.1 aminoacylation ribozyme variant]                   17
17  AUUACCCUGCUCAUCCAGUGA [Fam2.1 aminoacylation ribozyme variant]                 34.2

* * *

tested on: biotinyl-Trp-oxazolone; assay: self-aminoacylation, catalytic enhancement (BWO) (fold over background); higher = more active; k-Seq, kA / k0A0; sequences stand for … in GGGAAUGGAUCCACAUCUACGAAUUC…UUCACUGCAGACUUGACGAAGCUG
This sample holds only a part of the variants without activity.
Recorded measurements of self-aminoacylation, one per entry
Reported Metric: self-aminoacylation

>>> print(df.to_string())
                             record_sequence  quantitative_result
 0  AUGACCUUGGUCAUCGAGUGA [Fam2.1 aminoacylation ribozyme variant]                 6.29
 1  AAGUUUGCUAACAGUCGCAAA [Fam3.1 aminoacylation ribozyme variant]                 1.58
 2  GUACUUCAAACAAACGGUCUG [Fam1A.1 aminoacylation ribozyme variant]                 1.15
 3  CCGCACUUCAAGCAAUCGGAC [Fam1B.1 aminoacylation ribozyme variant]                 1.86
 4  AUGUUUGCUAAUAGUCGCACG [Fam3.1 aminoacylation ribozyme variant]                0.741
 5  AUUCACCUGGGUCAUCCGGUG [Fam2.2 aminoacylation ribozyme variant]                 9.13
 6  AUUACCCAAGUCAUCGAGUGA [Fam2.1 aminoacylation ribozyme variant]                 9.59
 7  AUUCCCCUGGUCAUCUAGUGA [Fam2.1 aminoacylation ribozyme variant]                   13
 8  CCACACUUCGAGCAAACGGUC [Fam1B.1 aminoacylation ribozyme variant]                 0.57
 9  AUUACCCUGGUCAUCGAUUGC [Fam2.1 aminoacylation ribozyme variant]                0.663
10  AUUCACCUAGGUGAUCCGGUG [Fam2.2 aminoacylation ribozyme variant]                 3.31
11  AAGUUUGAUAAUAGCCGCAAG [Fam3.1 aminoacylation ribozyme variant]                 1.19
12  CUACUUGAAACAAUCCGUCUG [Fam1A.1 aminoacylation ribozyme variant]                 1.44
13  AUUAGCCUAGUCAUCGAGUGA [Fam2.1 aminoacylation ribozyme variant]                 3.09
14  AGUCACCUAGGUCAGCGGGUG [Fam2.2 aminoacylation ribozyme variant]                 5.59
15  AAGUUUGGUAAGAGUCGCAAG [Fam3.1 aminoacylation ribozyme variant]                 1.31
16  CCAUACUUCAAGCACUCGGUC [Fam1B.1 aminoacylation ribozyme variant]                 0.69
17  AUAACCCUGGUCAUCGAGUGA [Fam2.1 aminoacylation ribozyme variant]                 18.7
